Target: human 5-HT1A receptors (Homo sapiens, UniProt P08908)
Construct: expressed in transfected cells; host or cells: CHO cells
Sequence (P08908 whole entry): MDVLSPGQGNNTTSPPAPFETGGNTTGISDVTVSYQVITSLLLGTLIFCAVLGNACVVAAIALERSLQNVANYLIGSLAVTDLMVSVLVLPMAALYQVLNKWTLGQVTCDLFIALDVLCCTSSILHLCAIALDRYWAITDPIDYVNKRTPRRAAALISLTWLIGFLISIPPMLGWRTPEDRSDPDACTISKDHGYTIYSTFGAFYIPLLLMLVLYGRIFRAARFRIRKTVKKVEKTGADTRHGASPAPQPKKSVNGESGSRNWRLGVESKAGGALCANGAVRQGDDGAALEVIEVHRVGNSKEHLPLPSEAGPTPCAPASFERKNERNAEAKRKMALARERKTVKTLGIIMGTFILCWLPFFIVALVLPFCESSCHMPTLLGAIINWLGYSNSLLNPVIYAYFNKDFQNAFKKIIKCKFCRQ
Assay: [3H] 8-OHDPAT displacement, 5-HT1A receptor affinity
Format: binding
pKi: −log10 of the molar value.
Output rule met for pKi not less than 9; output rule not met otherwise.

Dear colleague, could you confirm whether CCc1cc2c3c(ccc2[nH]1)OCC(CN1CC=C(c2c[nH]c4ccc(F)cc24)CC1)O3 (centres unmarked) has pKi at or above 9?
rule not met

Dear colleague, could you confirm whether CCc1cc2c3c(ccc2[nH]1)OCC(CN1CC=C(c2c[nH]c4ccccc24)CC1)O3 (centres unmarked) has pKi at or above 9?
rule not met

Dear colleague, could you confirm whether Fc1ccc2[nH]cc(C3=CCN(CC4COc5ccc6[nH]ccc6c5O4)CC3)c2c1 (centres unmarked) has pKi at or above 9?
rule not met

Dear colleague, could you confirm whether Cc1cc2c3c(ccc2[nH]1)OCC(CN1CC=C(c2c[nH]c4ccccc24)CC1)O3 (centres unmarked) has pKi at or above 9?
rule met

* * *

measurement-type: melting point (°C)
Only the number, expressed in °C, is required.

// recorded melting point for Fc1ccc2[nH]cc(C3=CCN(CC4COc5ccc6[nH]ccc6c5O4)CC3)c2c1 (centres unmarked) [Example 3] : 112

// recorded melting point for C1=C(c2c[nH]c3ccccc23)CCN(CC2COc3ccc4[nH]ccc4c3O2)C1 (centres unmarked) [Example 2] : 126

* * *

measurement-type: melting point

// recorded melting point for CCc1cc2c3c(ccc2[nH]1)OCC(CN1CC=C(c2c[nH]c4ccc(F)cc24)CC1)O3 (stereo not drawn) (hydrate or solvate) [Example 5] : 81 to 82 °C

// recorded melting point for CCc1cc2c3c(ccc2[nH]1)OCC(CN1CC=C(c2c[nH]c4ccccc24)CC1)O3 (stereo not drawn) (hydrate or solvate) [Example 4] : 175 to 177 °C

// recorded melting point for Cc1cc2c3c(ccc2[nH]1)OCC(CN1CC=C(c2c[nH]c4ccccc24)CC1)O3 (stereo not drawn) [Example 1] : 212 to 215 °C
